# Experimental target: Stromelysin-1 (Homo sapiens)
# Sequence (P08254 whole entry): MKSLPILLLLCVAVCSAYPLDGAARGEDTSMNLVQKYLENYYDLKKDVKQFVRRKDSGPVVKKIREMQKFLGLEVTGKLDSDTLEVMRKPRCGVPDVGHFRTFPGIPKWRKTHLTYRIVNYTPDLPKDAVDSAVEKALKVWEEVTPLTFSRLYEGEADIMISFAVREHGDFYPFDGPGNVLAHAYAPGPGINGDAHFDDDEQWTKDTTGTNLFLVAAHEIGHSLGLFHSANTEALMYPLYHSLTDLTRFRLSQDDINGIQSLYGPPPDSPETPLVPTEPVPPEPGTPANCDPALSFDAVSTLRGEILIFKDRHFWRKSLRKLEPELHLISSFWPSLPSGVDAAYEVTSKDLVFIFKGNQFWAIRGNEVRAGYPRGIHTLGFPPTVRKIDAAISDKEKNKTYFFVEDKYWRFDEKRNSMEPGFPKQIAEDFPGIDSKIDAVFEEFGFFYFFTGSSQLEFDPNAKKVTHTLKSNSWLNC
pIC50: −log10 of the molar value.
Label Criterion met when pIC50 is at or above 5; anything below gets Criterion not met.

Worked set:
>>> qualitative_label("COc1ccc(-c2ccc(S(=O)(=O)NC(CC#CCN3CCCC3)C(=O)O)cc2)cc1 (configuration not stated)")
"Criterion not met"
>>> qualitative_label("COc1ccc(S(=O)(=O)c2csc(S(=O)(=O)NC(CC#Cc3ccccc3)C(=O)O)c2)cc1 (configuration not stated)")
"Criterion not met"
>>> qualitative_label("COCC#CCC(NS(=O)(=O)c1ccc(-c2ccc(Br)cc2)cc1)C(=O)O (configuration not stated)")
"Criterion met"
>>> qualitative_label("COc1ccc(-c2ccc(S(=O)(=O)NC(CC#Cc3ccc(N4CCOCC4)cc3)C(=O)O)cc2)cc1 (configuration not stated)")
"Criterion not met"
>>> qualitative_label("O=C(O)C(CC#CCOc1ccccc1)NS(=O)(=O)c1ccc(-c2ccc(Br)cc2)cc1 (configuration not stated)")
"Criterion met"
>>> qualitative_label("CSc1ccc(-c2ccc(S(=O)(=O)NC(CC#Cc3ccccc3)C(=O)O)cc2)cc1 (configuration not stated)")
"Criterion met"

Input: Check if pIC50 >= 5 (inclusive). Item: O=C(O)C(CC#CCN1CCOCC1)NS(=O)(=O)c1ccc(-c2ccccc2)cc1 (configuration not stated)
Output: Criterion not met

Input: For this compound, is measured pIC50 5 or higher? O=C(O)C(CC#Cc1ccccc1)NS(=O)(=O)c1ccc(Oc2ccccc2)cc1 (configuration not stated)
Output: Criterion met

Input: Confirm if pIC50 reported for the compound COc1ccc(C#Cc2ccc(S(=O)(=O)NC(CC#CCN3CCOCC3)C(=O)O)cc2)cc1 (configuration not stated) is 5 or above.
Output: Criterion met

###

Measured IC50, listed per entry for reference.
# Experimental target: Collagenase 3 (Homo sapiens)
# Assay details: Inhibitory activity against human matrix metalloprotease-13 in quenched fluorescence assay at pH 7.4

Here is how some compounds turned out for IC50.
>>> measured_value("COc1ccc(S(=O)(=O)c2ccc(S(=O)(=O)NC(CC#Cc3ccccc3)C(=O)O)s2)cc1 (stereo not drawn)")
"> 10 µM"
>>> measured_value("COc1ccc(-c2ccc(S(=O)(=O)NC(CC#Cc3cccc(N4CCOCC4)c3)C(=O)O)cc2)cc1 (stereo not drawn)")
"0.024 µM"

Input: Report IC50 for CCOc1cccc(-c2ccc(S(=O)(=O)NC(CC#Cc3ccccc3)C(=O)O)cc2)c1 (stereo not drawn) please.
Output: > 1.6 µM

###

# Experimental target: Collagenase 3 (Homo sapiens, UniProt P45452)
# Assay details: Inhibitory activity against human matrix metalloprotease-13 in quenched fluorescence assay at pH 7.4
Observable: pIC50
In textbook form, pIC50 equals minus log to base ten of the concentration in mol/L.

Below, each entry is followed by its recorded pIC50 result.
>>> measured_value("COCCOc1ccc(-c2ccc(S(=O)(=O)NC(CC#Cc3ccccc3)C(=O)O)cc2)cc1 (configuration not stated)")
7.30
>>> measured_value("COCC#CCC(NS(=O)(=O)c1ccc(NC(=O)N2CCCC2)cc1)C(=O)O (configuration not stated)")
4.77
>>> measured_value("O=C(O)C(CC#Cc1ccccc1)NS(=O)(=O)c1ccc(-c2ccc3c(c2)OCO3)cc1 (configuration not stated)")
6.98
>>> measured_value("COc1ccc(C#Cc2ccc(S(=O)(=O)NC(CC#Cc3ccccc3)C(=O)O)cc2)cc1 (configuration not stated)")
7.46

Input: What pIC50 value was documented for this molecule, O=C(Nc1ccc(S(=O)(=O)NC(CC#Cc2ccccc2)C(=O)O)cc1)c1ccc(Cl)cc1 (configuration not stated) ?
Output: 6.90

Input: Please report the recorded pIC50 for O=C(O)C(CC#Cc1ccccc1)NS(=O)(=O)c1ccc(-c2ccc(Oc3ccccc3)cc2)cc1 (configuration not stated) .
Output: 5.67
